target: Homeobox protein Hox-A13 (Mus musculus) (UniProt Q62424); assay: inhibitors of HoxA13-DNA binding, primary screen, biochemical, fluorescence polarization, labeled oligonucleotide (AID 1185); settings: 15 min, called active from +8 up or from −8 down
Sequence (Q62424 whole entry, looked up): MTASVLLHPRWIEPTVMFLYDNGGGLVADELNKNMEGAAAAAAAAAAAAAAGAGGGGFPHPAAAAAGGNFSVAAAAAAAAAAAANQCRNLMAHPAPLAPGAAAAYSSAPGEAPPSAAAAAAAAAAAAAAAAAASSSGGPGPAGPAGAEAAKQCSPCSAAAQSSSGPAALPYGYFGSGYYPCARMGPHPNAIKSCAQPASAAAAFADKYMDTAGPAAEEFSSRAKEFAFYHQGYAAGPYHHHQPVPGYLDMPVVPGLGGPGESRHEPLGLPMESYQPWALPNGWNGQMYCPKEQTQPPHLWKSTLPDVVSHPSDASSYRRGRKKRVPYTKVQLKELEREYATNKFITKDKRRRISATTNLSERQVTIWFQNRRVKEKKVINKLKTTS
Activity calls are given as the source filed them.
// one of 1 = active, -1 = inactive, no free text

Solved entries (count: 3):
[
  {
    "compound": "COCCOC(=O)N1C(=O)[C@@]2(c3cc(C#CCNC(N)=O)ccc31)[C@H](c1ccccc1OCCO)N1[C@H](c3ccccc3)[C@H](c3ccccc3)OC(=O)[C@H]1[C@@H]2C(=O)N1CCCCCCC1",
    "answerLabel": -1
  },
  {
    "compound": "O=C1O[C@@H](c2ccccc2)[C@@H](c2ccccc2)N2[C@@H](c3ccc(OCCO)cc3)[C@]3(C(=O)Nc4ccc(C#CC5=CCCCC5)cc43)[C@@H](C(=O)Nc3nc4ccccc4s3)[C@H]12",
    "answerLabel": 1
  },
  {
    "compound": "O=C1NC(=O)C2C1C=CC(C(O)c1ccc(F)cc1)N2Nc1ccc(Cl)cc1Cl (centres undefined)",
    "answerLabel": -1
  }
]

Proceed to the following item.
Can you look up the reported call for COC(=O)c1c2oc(c1C(=O)OC)C(=O)N[C@H](Cc1ccccc1)Cn1cc(nn1)C1(CCCCC1)NC(=O)N[C@H](CO)CC2 for me? -1

* * *

molecular target: Epidermal growth factor receptor (Homo sapiens); experiment: EGFR binders on small-molecule microarrays, primary screen, biochemical, small-molecule microarray, 635 nm fluorescence (AID 1104); conditions: EGFR binding, higher = more signal;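 also: score merges 667 nm emission intensity with spot signal to noise over triplicate slides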
This section presents molecules with their documented composite z-score values.
// no unit, no text: just the number

Study these solved cases before continuing.
[
  {
    "chemSmiles": "C=C(C(=O)CC[C@@H](OC(=O)c1cccnc1)c1cccc(OCCO)c1)C(C)C",
    "composite z-score": 0.111
  },
  {
    "chemSmiles": "CO[C@H]1O[C@H](CO)[C@@H](OC(=O)CCc2ccccc2)[C@@H]2OC(=O)[C@@H](Cc3ccc4ccccc4c3)C/C=C/C[C@H](Cc3ccc4ccccc4c3)C(=O)O[C@@H]12",
    "composite z-score": -0.691
  }
]

Please turn your attention to the following entry.
# get_value(readout='composite z-score', item= CO[C@H]1O[C@H](CO)[C@@H](OC(=O)Nc2cccc(F)c2)[C@H](OC(=O)c2cc3ccccc3[nH]2)[C@H]1OC(=O)c1cc2ccccc2[nH]1 ) -0.213

* * *

This section presents compounds with their documented composite z-score values.
biological target: Torsin-1A (Homo sapiens) (UniProt O14656); experiment: small-molecule binders of mutant TOR1A in lysate, primary screen, cell lysate, small-molecule microarray, COS7 lysate, 635/667 nm fluorescence (AID 1150); details: COS7 hTOR1A mutant lysate, 635 nm fluorescence, higher = more signal;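 also: score pools 667 nm emission and signal to noise measuring lysate protein binding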
Sequence (O14656 whole entry, looked up): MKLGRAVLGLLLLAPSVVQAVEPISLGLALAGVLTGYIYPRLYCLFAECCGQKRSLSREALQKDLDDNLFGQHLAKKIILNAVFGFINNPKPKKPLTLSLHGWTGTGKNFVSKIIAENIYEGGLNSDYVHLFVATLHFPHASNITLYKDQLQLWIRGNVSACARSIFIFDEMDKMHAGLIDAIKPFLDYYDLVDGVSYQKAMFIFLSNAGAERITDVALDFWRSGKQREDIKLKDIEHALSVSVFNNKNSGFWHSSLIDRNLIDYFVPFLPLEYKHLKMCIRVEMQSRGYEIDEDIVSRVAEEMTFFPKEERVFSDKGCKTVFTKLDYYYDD

Study these solved cases before continuing.
[
  {
    "compound": "COc1ccc(C(O)C2C=CC3C(=O)N(C)C(=O)C3N2Nc2ccccc2)cc1 (centres undefined)",
    "measurement": 0.994
  },
  {
    "compound": "C=C(C(=O)CC[C@H](OC(=O)c1ccccc1-c1ccccc1C(=O)O)c1ccc(OCCO)cc1)C(C)C",
    "measurement": 1.5
  },
  {
    "compound": "CCCCN1CC=CC23O[C@@H]4/C=C\\CCCOC(=O)C4[C@H]2C(=O)N(CCCCCCO)[C@@H]3C1=O (some centres undefined)",
    "measurement": -1.49
  }
]

Please turn your attention to the following entry.
# get_value(readout='composite z-score', item= CCOC(=O)C=C1C[C@@H](c2cccc([N+](=O)[O-])c2)O[C@@H](c2cccc([N+](=O)[O-])c2)O1 ) 0.582
